- target: human GR (Homo sapiens)
- method.description: Trans-Activation Modulation of Glucocorticoid Receptor (GRAMMER), MMTV-LUC reporter, agonist mode
- Type: cell-based
- Design: endogenous in cells
- particulars: A549, A549 cells; maximum activity; read-out: Transactivation A549 Cells GRAMMER Emax
value.kind: Emax (%)
Field: numeric (%). Do not append units.

Give the measured Emax of C[C@]12Cc3cnn(-c4ccc(F)cc4)c3C=C1CC[C@@H]2CN(CC#N)S(=O)(=O)c1cc(Cl)c(Cl)s1 [Example 24] . 10.5

Give the measured Emax of C[C@]12Cc3cnn(-c4ccc(F)cc4)c3C=C1CC[C@@H]2CN(CC=O)S(=O)(=O)c1ccccc1F [Example 158] . 36.2

Give the measured Emax of C[C@]12Cc3cnn(-c4ccc(F)cc4)c3C=C1CC[C@@H]2CN(CCO)S(=O)(=O)c1ccc(F)c(F)c1 [Example 59] . 41.3

Give the measured Emax of C[C@]12Cc3cnn(-c4ccc(F)cc4)c3C=C1CC[C@@H]2CN(CCc1ccc(O)cc1)S(=O)(=O)CC(F)(F)F [Example 130] . 66.1

Give the measured Emax of Cn1cc(S(=O)(=O)N(CC2CCCO2)C[C@H]2CCC3=Cc4c(cnn4-c4ccc(F)cc4)C[C@@]32C)c(C(F)(F)F)n1 (stereo partly shown) [Example 175] . 22.7

Give the measured Emax of C[C@]12Cc3cnn(-c4ccc(F)cc4)c3C=C1CC[C@@H]2CN(CCO)S(=O)(=O)c1ccccc1-c1ccccc1 [Example 84] . 19.7

Give the measured Emax of CN1CCOc2cc(S(=O)(=O)N(CC#N)C[C@H]3CCC4=Cc5c(cnn5-c5ccc(F)cc5)C[C@@]43C)ccc21 [Example 39] . 1.7

====

- target: human GR (Homo sapiens)
- method.description: Transrepression Assay (GITAR), TNFα-β-lactamase reporter in U937 cells
- Format: cell-based
- Parameters: U937 cells contain an endogenous glucocorticoid receptor (GR); endogenous in cells; host or cells: U937 cells stably transfected with the TNF-alpha promoter/beta-lactamase reporter
- particulars: U937 cells; inflection point; read-out: Transrepression U937 Cells GITAR IP
pEC50: −log10 of the molar value.
fulfilled means recorded pEC50 is 6 or above; not fulfilled means it is below 6.

Hi team, for "COc1ccc(CCN(C[C@H]2CCC3=Cc4c(cnn4-c4ccc(F)cc4)C[C@@]32C)S(=O)(=O)CC(F)(F)F)cc1" , is the recorded pEC50 at or above 6? fulfilled

Hi team, for "C[C@]12Cc3cnn(-c4ccc(F)cc4)c3C=C1CC[C@@H]2CN(CC=O)S(=O)(=O)c1ccccc1F" , is the recorded pEC50 at or above 6? fulfilled

Hi team, for "C[C@]12Cc3cnn(-c4ccc(F)cc4)c3C=C1CC[C@@H]2CN(CC#N)S(=O)(=O)c1cc(OCC(F)(F)F)ccc1OCC(F)(F)F" , is the recorded pEC50 at or above 6? fulfilled

Hi team, for "COC(=O)c1ccccc1CS(=O)(=O)N(CCc1ccccc1F)C[C@H]1CCC2=Cc3c(cnn3-c3ccc(F)cc3)C[C@@]21C" , is the recorded pEC50 at or above 6? fulfilled

Hi team, for "C[C@]12Cc3cnn(-c4ccc(F)cc4)c3C=C1CC[C@@H]2CN(CC#N)S(=O)(=O)c1ccc(F)c(Cl)c1" , is the recorded pEC50 at or above 6? fulfilled

Hi team, for "C[C@]12Cc3cnn(-c4ccc(F)cc4)c3C=C1CC[C@@H]2CN(Cc1ccccc1F)S(=O)(=O)c1cccc(C(N)=O)c1" , is the recorded pEC50 at or above 6? not fulfilled

====

Give measured Emax for each item. Keep answers brief.
- target: human GR (Homo sapiens)
- method.description: Transrepression Assay (GITAR), TNFα-β-lactamase reporter in U937 cells
- Assay type: cell-based
- Parameters: U937 cells contain an endogenous glucocorticoid receptor (GR); endogenous in cells; host or cells: U937 cells stably transfected with the TNF-alpha promoter/beta-lactamase reporter
- particulars: U-937, U937 cells; maximum activity; read-out: Transrepression U937 Cells GITAR Emax
Field: numeric (%). Do not append units.

Lab request: please report Emax under test system human GR (Homo sapiens) for "C[C@]12Cc3cnn(-c4ccc(F)cc4)c3C=C1CC[C@@H]2CN(CCc1ccccc1F)S(=O)(=O)CC(F)(F)F" 95.6

Lab request: please report Emax under test system human GR (Homo sapiens) for C[C@]12Cc3cnn(-c4ccc(F)cc4)c3C=C1CC[C@@H]2CN(CC(O)C(F)F)S(=O)(=O)Cc1cccnc1 (stereo partly shown) 66.5

Lab request: please report Emax under test system human GR (Homo sapiens) for "C[C@]12Cc3cnn(-c4ccccc4)c3C=C1CC[C@@H]2CN(CCc1ccccc1F)S(=O)(=O)CC(F)(F)F" 87.6

Lab request: please report Emax under test system human GR (Homo sapiens) for "Cn1cc(S(=O)(=O)N(CCc2ccccn2)C[C@H]2CCC3=Cc4c(cnn4-c4ccc(F)cc4)C[C@@]32C)c(C(F)(F)F)n1" 79.3

Lab request: please report Emax under test system human GR (Homo sapiens) for "C[C@]12Cc3cnn(-c4ccc(F)cc4)c3C=C1CC[C@@H]2CN(CCO)S(=O)(=O)c1ccccc1C#N" 66.5

Lab request: please report Emax under test system human GR (Homo sapiens) for "COC(=O)c1ccccc1S(=O)(=O)N(C[C@H]1CCC2=Cc3c(cnn3-c3ccc(F)cc3)C[C@@]21C)C[C@@H](C)O" 63.5

Lab request: please report Emax under test system human GR (Homo sapiens) for "Cc1ccc(CCN(C[C@H]2CCC3=Cc4c(cnn4-c4ccc(F)cc4)C[C@@]32C)S(=O)(=O)c2ccccc2F)cc1" 61.5

====

- target: human GR (Homo sapiens, UniProt P04150)
- Sequence (P04150 1-777): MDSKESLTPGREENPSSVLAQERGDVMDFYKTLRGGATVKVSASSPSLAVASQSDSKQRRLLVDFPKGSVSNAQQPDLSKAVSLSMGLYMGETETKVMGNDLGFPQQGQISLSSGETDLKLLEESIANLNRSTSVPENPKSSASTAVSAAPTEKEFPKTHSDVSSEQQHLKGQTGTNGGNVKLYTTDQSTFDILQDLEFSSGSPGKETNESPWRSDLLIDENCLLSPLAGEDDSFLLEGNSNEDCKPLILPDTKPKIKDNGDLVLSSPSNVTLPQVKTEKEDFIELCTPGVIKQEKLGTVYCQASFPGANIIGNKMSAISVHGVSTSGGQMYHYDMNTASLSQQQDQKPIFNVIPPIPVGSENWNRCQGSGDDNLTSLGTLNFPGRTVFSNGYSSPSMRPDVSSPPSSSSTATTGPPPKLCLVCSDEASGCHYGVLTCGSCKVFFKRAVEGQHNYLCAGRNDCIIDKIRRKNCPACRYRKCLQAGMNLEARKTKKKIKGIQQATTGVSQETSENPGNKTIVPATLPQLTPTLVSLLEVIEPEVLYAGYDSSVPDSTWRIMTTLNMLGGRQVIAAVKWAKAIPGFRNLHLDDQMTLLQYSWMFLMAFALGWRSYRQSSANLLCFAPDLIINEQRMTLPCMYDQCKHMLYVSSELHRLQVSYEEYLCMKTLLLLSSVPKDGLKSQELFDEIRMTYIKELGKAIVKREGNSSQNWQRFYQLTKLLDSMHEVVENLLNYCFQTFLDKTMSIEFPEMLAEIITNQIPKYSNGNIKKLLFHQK
- method.description: Trans-Activation Modulation of Glucocorticoid Receptor (GRAMMER), MMTV-LUC reporter, agonist mode
- Type: cell-based
- Set-up: endogenous in cells
- particulars: A549 cells; inflection point; read-out: Transactivation A549 Cells GRAMMER IP
value.kind: pEC50
Answer as the number alone; pEC50 is minus log10 of concentration in mol/L.

Give the measured pEC50 of "COc1ccc(CCN(C[C@H]2CCC3=Cc4c(cnn4-c4ccc(F)cc4)C[C@@]32C)S(=O)(=O)CC(F)(F)F)cc1" . 6.63

Give the measured pEC50 of C[C@]12Cc3cnn(-c4ccc(F)cc4)c3C=C1CC[C@@H]2CN(CC(O)C(F)(F)F)S(=O)(=O)Cc1cccnc1 (stereo partly drawn) . 6.45

Give the measured pEC50 of "C[C@]12Cc3cnn(-c4ccc(F)cc4)c3C=C1CC[C@@H]2CN(Cc1cccnn1)S(=O)(=O)CC(F)(F)F" . 6.38

Give the measured pEC50 of "C[C@]12Cc3cnn(-c4ccc(F)cc4)c3C=C1CC[C@@H]2CN(CCc1ccccn1)S(=O)(=O)Cc1ccncc1" . 6.52

Give the measured pEC50 of "C[C@]12Cc3cnn(-c4ccc(F)cc4)c3C=C1CC[C@@H]2CN(Cc1ccccc1F)S(=O)(=O)c1cccc(C(N)=O)c1" . 6.77

Give the measured pEC50 of "Cc1nn(C)c(Cl)c1S(=O)(=O)N(CC1CC1)C[C@H]1CCC2=Cc3c(cnn3-c3ccc(F)cc3)C[C@@]21C" . 6.45

Give the measured pEC50 of "Cc1noc(C)c1S(=O)(=O)N(CC1CC1)C[C@H]1CCC2=Cc3c(cnn3-c3ccc(F)cc3)C[C@@]21C" . 6.63

Give the measured pEC50 of "CCCS(=O)(=O)N(CCc1ccccc1F)C[C@H]1CCC2=Cc3c(cnn3-c3ccc(F)cc3)C[C@@]21C" . 6.64

Give the measured pEC50 of "C[C@]12Cc3cnn(-c4ccc(F)cc4)c3C=C1CC[C@@H]2CN(CC#N)S(=O)(=O)c1ccccc1-c1ccccc1" . 6.06

Give the measured pEC50 of "Cc1oncc1S(=O)(=O)N(CC#N)C[C@H]1CCC2=Cc3c(cnn3-c3ccc(F)cc3)C[C@@]21C" . 5.06

Give the measured pEC50 of "C[C@H](O)CN(C[C@H]1CCC2=Cc3c(cnn3-c3ccc(F)cc3)C[C@@]21C)S(=O)(=O)Cc1ccccc1C(N)=O" . 6.60

Give the measured pEC50 of "C[C@]12Cc3cnn(-c4ccc(F)cc4)c3C=C1CC[C@@H]2CN(CCO)S(=O)(=O)c1cccc(Cl)c1Cl" . 6.38

Give the measured pEC50 of "CNC(=O)Nc1ccc(S(=O)(=O)N(CCO)C[C@H]2CCC3=Cc4c(cnn4-c4ccc(F)cc4)C[C@@]32C)c(Cl)c1" . 5.71

Give the measured pEC50 of "C[C@]12Cc3cnn(-c4ccc(F)cc4)c3C=C1CC[C@@H]2CN(CC#N)S(=O)(=O)c1cc(F)cc(F)c1" . 6.21

Give the measured pEC50 of "COCCN(C[C@H]1CCC2=Cc3c(cnn3-c3ccc(F)cc3)C[C@@]21C)S(=O)(=O)CC(F)(F)F" . 7.31
